Tested on: MDA-MB-435
Assay: NCI tumour cell line growth inhibition, 48 h
Activity calls are given as the source filed them. No stated cut-off is given here; in the data, active = GI50 up to about 1.1 µM and inactive = higher.
Possible outcomes: YES = active, NO = inactive

INSERT INTO assay_data (molecule, group_label) VALUES
  ('Cc1c(CCOC=O)c(=O)[nH]c2nncn12', 'NO'),
  ('COc1cc(Cn2c3c(c4c(CN(C)C)c(O)ccc42)C(=O)c2ccccc2C3=O)cc(OC)c1', 'NO'),
  ('O=C1C(/N=N/c2ccc(-c3nc4ccccc4o3)cc2)NC(=S)N1c1ccccc1 (stereo not given)', 'NO'),
  ('CN(C)CC(NC(NCS)C(=O)NCCNc1ccc(NCCNC(=O)C(NCS)NC(CN(C)C)OCCl)c2c1C(=O)c1c(O)ccc(O)c1C2=O)OCCl (stereo not given)', 'YES'),
  ('CC(=O)N1C(=O)/C(=C\C(=O)c2ccc(Cl)cc2)c2ccccc21', 'NO');

====

System: HCT-15
Recorded GI50 for the following compounds
observable: GI50 (µM)

INSERT INTO assay_data (compound, experimental_target, censoring_qualifier, assay_result) VALUES
  ('CN(C)CCNC(=O)c1ccc(C(=O)NCCN(C)C)c2nc3ccccc3cc12', 'HCT-15', '=', 2.96),
  ('Clc1ccc2nc(-c3ccccc3)nc(Cl)c2c1', 'HCT-15', '>', 100),
  ('Nc1nc2c(ncn2C2C=CC(COS(N)(=O)=O)C2)c(=O)[nH]1 (stereo not given)', 'HCT-15', '>', 100),
  ('CCOC(=O)CCC(NC(=O)c1ccc(OCc2nc3cc(C(F)(F)F)ccc3nc2-c2ccccc2)cc1)C(=O)OCC (stereo not given)', 'HCT-15', '=', 68.2),
  ('N[C@H](C(=O)O)[C@@H](Cl)CC(=O)O', 'HCT-15', '>', 100),
  ('CC12CCC(C1)C(C)(C)C2OC(=O)c1ccccc1N (stereo not given)', 'HCT-15', '=', 15.9),
  ('CC(=O)NC(=O)/N=C1\NCCC(=O)N1CCc1c[nH]c2ccccc12', 'HCT-15', '>', 100),
  ('CCCCN(CCCC)CCCCNc1c(C)cnc2cc(Cl)ccc12', 'HCT-15', '=', 29.9),
  ('COc1ccc(-c2nc(SCC(=O)NNC(=S)Nc3ccccc3)[nH]c2-c2ccc(OC)cc2)cc1', 'HCT-15', '=', 22.2),
  ('CC1=CC(=O)CC(C)(C)C1/C=C/C(C)=C/C=C/C(C)=C/C=C/C=C(C)/C=C/C=C(C)/C=C/C1=C(C)CC(O)CC1(C)C (stereo not given)', 'HCT-15', '=', 24.1);

====

Test system: HCT-116
Experiment: NCI tumour cell line growth inhibition, 48 h
Activity calls are given as the source filed them. No stated cut-off is given here; in the data, active = GI50 up to about 1.1 µM and inactive = higher.
Possible outcomes: Y for active, N for inactive

INSERT INTO results (compound, experimental_target, group_label) VALUES
  ('CC(OC(C)(C)C)[C@H](NC(=O)OCc1ccccc1)C(=O)NC(OCc1ccccc1)[C@H]1COC(C)(C)O1 (stereo partly specified)', 'HCT-116', 'N'),
  ('O=c1[nH]c(Br)nc2c(Br)c[nH]c12', 'HCT-116', 'N'),
  ('C(=C(c1ccc(OC2CCCCO2)cc1)c1ccc(OC2CCCCO2)cc1)c1ccccc1 (stereo unspecified)', 'HCT-116', 'Y'),
  ('C/C(=C1/N=C(c2ccccc2)OC1=O)c1cccs1', 'HCT-116', 'N'),
  ('COc1ccc2c(=O)cc(-c3ccc(OC)c(OC)c3OC)oc2c1', 'HCT-116', 'N'),
  ('O=C(/C=C/c1ccc(O)c(O)c1)NC(CO)C(=O)O (stereo unspecified)', 'HCT-116', 'N');
